Tested on: 855422-203-R-J1-PDC complex spheroid growth;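 also: spheroids exposed to agents for seven days before readout; percent of DMSO vehicle control luminescence viability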
Experiment: Anticancer human tumor 855422-203-R-J1-PDC patient-derived bladder carcinoma cell line growth inhibition [AhR]
Details: second compound 0.1 µM; first compound 1 µM; stronger effect = lower value
Would you kindly list viability, T/C for each of these molecules?
Answers are plain numbers, in %.

Molecule: COc1cc(Nc2ncc3c(n2)-c2ccc(Cl)cc2C(c2c(F)cccc2OC)=NC3)ccc1C(=O)O + CC(CO)NC(=O)c1cc(-c2ccc(Cl)cc2)nn(-c2cnn(C)c2)c1=O
Result Type: viability, T/C
Uom: %
Assay Value: 57.6

I have 3 molecules here; please give me viability, T/C for each one.
1. CC1COCCN1c1cc(C2(S(C)(=N)=O)CC2)nc(-c2ccnc3[nH]ccc23)n1 (configuration not stated) + Cc1cncc(-c2nc(NCCc3c[nH]c4ccccc34)c3ncn(C(C)C)c3n2)c1
2. CC1(C)CCC(CN2CCN(c3ccc(C(=O)NS(=O)(=O)c4ccc(NCC5CCOCC5)c([N+](=O)[O-])c4)c(Oc4cnc5[nH]ccc5c4)c3)CC2)=C(c2ccc(Cl)cc2)C1 + Cc1ccccc1N=Nc1ccc(NC(=O)c2ccnn2C)c(C)c1
3. NS(=O)(=O)OCC1CC(n2ccc3c(NC4CCc5ccccc54)ncnc32)CC1O (configuration not stated) + Cc1cncc(-c2nc(NCCc3c[nH]c4ccccc34)c3ncn(C(C)C)c3n2)c1

1. 98.6
2. 107
3. 50.4

For the 8 molecules below, give their viability, T/C values.
1. CC(C)c1c(-c2ccccc2)nc2c(C#N)c[nH]n2c1=O + Cc1ccccc1N=Nc1ccc(NC(=O)c2ccnn2C)c(C)c1
2. COc1cc(C2c3cc4c(cc3C(OC3OC5COC(C)OC5C(O)C3O)C3COC(=O)C23)OCO4)cc(OC)c1O (configuration not stated) + Cc1cncc(-c2nc(NCCc3c[nH]c4ccccc34)c3ncn(C(C)C)c3n2)c1
3. COc1ccc([C@@H](O)c2cc(-c3ncnc4cc(N5CCOCC5)ccc34)c(F)cc2Cl)nn1 + Cc1ccccc1N=Nc1ccc(NC(=O)c2ccnn2C)c(C)c1
4. Nc1ncn(C2CC(O)C(CO)O2)c(=O)n1 (configuration not stated) + CC(CO)NC(=O)c1cc(-c2ccc(Cl)cc2)nn(-c2cnn(C)c2)c1=O
5. CC1COCCN1c1cc(-c2ccnn2C)c2ccnc(-c3ccn[nH]3)c2n1 (configuration not stated) + Cc1ccccc1N=Nc1ccc(NC(=O)c2ccnn2C)c(C)c1
6. O=C(C=Cc1cccc(S(=O)(=O)Nc2ccccc2)c1)NO + Cc1ccccc1N=Nc1ccc(NC(=O)c2ccnn2C)c(C)c1
7. NS(=O)(=O)OCC1CC(n2ccc3c(NC4CCc5ccccc54)ncnc32)CC1O (configuration not stated) + Cc1ccccc1N=Nc1ccc(NC(=O)c2ccnn2C)c(C)c1
8. COc1ccc([C@@H](O)c2cc(-c3ncnc4cc(N5CCOCC5)ccc34)c(F)cc2Cl)nn1 + CC(CO)NC(=O)c1cc(-c2ccc(Cl)cc2)nn(-c2cnn(C)c2)c1=O

[92.9, 14.8, 96.5, 76.3, 27.8, 111, 98.5, 86.3]
